molecular target: Cloned Human Dopamine D3 Receptors (Homo sapiens, UniProt P35462); construct: expressed in transfected cells; membrane homogenate; assay: [N-Methyl-3H]Spiroperidol binding to cloned human dopamine D3 receptors; conditions: Table 2; unit inferred; read-out: d3Ki
Sequence (P35462 whole entry): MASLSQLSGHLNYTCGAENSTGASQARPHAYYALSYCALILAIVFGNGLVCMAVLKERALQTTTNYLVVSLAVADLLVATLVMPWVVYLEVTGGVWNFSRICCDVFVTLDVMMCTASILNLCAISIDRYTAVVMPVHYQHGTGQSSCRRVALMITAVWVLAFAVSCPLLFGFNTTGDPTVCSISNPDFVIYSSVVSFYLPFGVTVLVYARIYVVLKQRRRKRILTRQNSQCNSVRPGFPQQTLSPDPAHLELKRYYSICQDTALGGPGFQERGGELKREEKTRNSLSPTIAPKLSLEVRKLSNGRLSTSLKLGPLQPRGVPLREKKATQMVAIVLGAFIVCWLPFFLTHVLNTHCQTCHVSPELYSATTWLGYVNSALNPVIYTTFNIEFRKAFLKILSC
METRIC: pKi
Just the number, please; pKi means minus log10 of the concentration in mol/L.

// "CCCN(C(=O)CCCCN1CCN(c2csc3cc(F)ccc23)CC1)c1ccc(F)cc1" : pKi value = 7.40

// CCC1CCC(NC(=O)C2CC2CN2CCN(c3ccc(C)cc3C)CC2)CC1 (stereo not shown) [817571A] : pKi value = 7.94

// CC[C@H]1CC[C@H](NC(=O)[C@@H]2C[C@H]2CN2CCN(c3cc(C)ccc3C)CC2)CC1 [817102A] : pKi value = 8.12

// "C[C@H]1CC[C@H](NC(=O)[C@@H]2C[C@H]2CN2CCN(c3cccc4cccnc34)CC2)CC1" : pKi value = 7.80

// CC1CCCC(NC(=O)CCCN2CCN(c3csc4cc(F)ccc34)CC2Cc2ccccc2)C1 (stereo not shown) : pKi value = 6.55

// "O=C(NCc1ccc(C(F)(F)F)cc1)[C@@H]1C[C@H]1CN1CCN(c2csc3cc(C(F)(F)F)ccc23)CC1" : pKi value = 6.78

// "CC(C)(C)c1ccc(NC(=O)CCCN2CCN(c3csc4cc(F)ccc34)CC2)cc1" : pKi value = 6.66

* * *

target: Cloned Human Dopamine D3 Receptors (Homo sapiens, UniProt P35462); construct: expressed in transfected cells; membrane homogenate; experiment: [N-Methyl-3H]Spiroperidol binding to cloned human dopamine D3 receptors; details: Table 2 part the 10th table; read-out: d3Ki
# reported Ki; entries follow
Quick note: give the figure in nM, leave out the unit.

MOLECULE	TGT	Ki, nM
NC(=O)C1CCN(C(=O)[C@@H]2C[C@H]2CN2CCN(c3csc4cc(C(F)(F)F)ccc34)CC2)CC1 [compound 826661]	Cloned Human Dopamine D3 Receptors (Homo sapiens, UniProt P35462)	25
CC1CCCN1C(=O)CCCN1CCCN(c2csc3cc(F)ccc23)CC1 (stereo not drawn) [compound 826842]	Cloned Human Dopamine D3 Receptors (Homo sapiens, UniProt P35462)	3.66
O=C(CCCN1CCN(c2csc3cc(C(F)(F)F)ccc23)CC1Cc1ccccc1)N1CCC(N2CCCC2)CC1 (stereo not drawn) [compound 827067]	Cloned Human Dopamine D3 Receptors (Homo sapiens, UniProt P35462)	268

API: the following record is the query input.
Observed Ki on Cloned Human Dopamine D3 Receptors (Homo sapiens, UniProt P35462), entry O=C(CCCN1CCN(c2csc3cc(F)ccc23)CC1CCCc1ccccc1)N1CCC(O)CC1 (stereo not drawn) [compound 827113] , equals 95

* * *

Target: Cloned Human Dopamine D3 Receptors (Homo sapiens)
Construct: expressed in transfected cells; membrane homogenate
Experiment: [N-Methyl-3H]Spiroperidol binding to cloned human dopamine D3 receptors
Details: Table 2 part the 10th table; read-out: d3Ki
Method: [N-Methyl-^3H]Spiroperidol Binding to Cloned Human Dopamine D3 Receptors […] A 200 µl sample membrane homogenate is added to 200 µl of 1% SDS, vortexed and allowed to stand for 5 min. Aliquots (25, 50 and 100 µl) of this mixture are assayed in duplicate following the standard Bio-Rad DC protein assay protocol (kit catalog number 500-0112) and using reagent S. Absorbance readings are made at 750 nm (note: the most accurate protein OD readings are between 0.1-0.5 units). […]
# reported pKi; entries follow
Just the number, please; pKi means minus log10 of the concentration in mol/L.

COMPOUND	METRIC	READING
O=C([C@@H]1C[C@H]1CN1CCN(c2csc3cc(F)ccc23)CC1)N1CCCC1 [compound 826669]	pKi	9.62

// CCOC(=O)C1CCN(C(=O)[C@@H]2C[C@H]2CN2CCCN(c3csc4cc(F)ccc34)CC2)CC1 [compound 826871] : pKi value = 7.97

// NC(=O)C1CCN(C(=O)[C@@H]2C[C@H]2CN2CCCN(c3csc4cc(C(F)(F)F)ccc34)CC2)CC1 [compound 826687] : pKi value = 6.88

// CC1(C)CCCN(C(=O)[C@@H]2C[C@H]2CN2CCCN(c3csc4cc(F)ccc34)CC2)C1 [compound 826877] : pKi value = 8.33

// CN(C)C1CCN(C(=O)[C@@H]2C[C@H]2CN2CCCN(c3csc4cc(F)ccc34)CC2)C1 (some centres unmarked) [compound 826883] : pKi value = 7.87

// O=C([C@@H]1C[C@H]1CN1CCN(c2csc3cc(C(F)(F)F)ccc23)CC1)N1CCCCC1 [compound 826081] : pKi value = 7.73

// CC1CCCCN1C(=O)CCCN1CCCN(c2csc3cc(F)ccc23)CC1 (centres unmarked) [compound 826833] : pKi value = 9.06

// CC1CCCN1C(=O)[C@@H]1C[C@H]1CN1CCN(c2csc3cc(C(F)(F)F)ccc23)CC1 (some centres unmarked) [compound 826918] : pKi value = 7.52

// O=C([C@@H]1C[C@H]1CN1CCN(c2csc3cc(C(F)(F)F)ccc23)CC1)N1CCC[C@H]1CO [compound 826920] : pKi value = 7.17

// O=C([C@@H]1C[C@H]1CN1CCN(c2csc3cc(C(F)(F)F)ccc23)CC1)N1CCC(n2c(=O)[nH]c3ccccc32)CC1 [compound 826903] : pKi value = 8.13

// CC1(C)CCCN(C(=O)[C@@H]2C[C@H]2CN2CCN(c3csc4cc(C(F)(F)F)ccc34)CC2)C1 [compound 826912] : pKi value = 7.23
